# credit: patent US8620595B2

- assay_text: Determination of S from retention time shift Δ relative to P3 at two gradient slopes, nano-RP-HPLC MS of spiked tryptic digest
- Assay type: physicochemical
- reported_conditions: experimental S value, LC-MS runs of model peptide mixture
property_label: Slope (experimental)
# print the numeric value only

LNSLTVGPR :: 30.791
YCGVPGEYWLGNDR :: 29.184
ECCHGDLLECADDRADLAK :: 40.256
CLMEGAGDVAFVK :: 30.666

The measured Slope (experimental) associated with LSQKFPK reads 38.913

The measured Slope (experimental) associated with WCTISQPEWFK reads 30.438

----------
- assay_text: Determination of S from retention time shift Δ relative to P3 at two gradient slopes, nano-RP-HPLC MS of spiked tryptic digest
- Format: physicochemical
- reported_conditions: experimental S value, LC-MS runs of model peptide mixture
Field: label. Allowed values: Met (Slope (experimental) < 30) or Not met (Slope (experimental) >= 30).

KLGAPSITCVR :: Not met
IRPYFPEQ :: Met
NTVDSVSR :: Not met
KNWIQYK :: Not met
THFSGDVQR :: Not met

Challenge: Bench note: check whether GYLAVAVVK shows Slope (experimental) below 30
Response given: Met

Challenge: Bench note: check whether LCENIAGHLK shows Slope (experimental) below 30
Response given: Not met

Challenge: Bench note: check whether ANEGLTWNSLK shows Slope (experimental) below 30
Response given: Met
